Where do these numbers come from? They come from paper PMC10397247.

Biological target: T1, 4H2667-bH
T1 chain: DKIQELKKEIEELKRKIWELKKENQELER
Assay: two-hybrid library CCNG1;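 note: natural log of median RNA to DNA barcode read ratio; higher means stronger binding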
property: interaction score

INSERT INTO results (binder, property, observed_measurement) VALUES
  ('DKIQELEKKNEELEREIWELKKEIQELKR [4H2442-bH]', 'interaction score', -0.37),
  ('DKIQELKKEIEELERKNWELEKEIQELKR [4H2610-bH]', 'interaction score', -0.792),
  ('DKIQELKKEIEELERKNWELKKEIQELKR [4H2618-bH]', 'interaction score', 0.678),
  ('DENQELEKENEELERKIWELKKEIQELER [4H1193-bH]', 'interaction score', -0.964),
  ('DKIQELKKEIEELEREIWELKKKNQELKR [4H2576-bH]', 'interaction score', 0.467);
